Just for reference, ChEMBL document CHEMBL1127581 is where these values come from.

Organism: Oryctolagus cuniculus
assay.overview: Tested for its ability to block 5-HT2A induced contractile responses in rabbit isolated aorta
Assay type: functional
# maps each entry to its pKB

Consider the molecule COc1ccc(C(=O)Nc2ccc(-c3ccc(C=O)cc3C)cc2)cc1CCCN(C)C and give its measured pKB.
6.3

----------
experimental.system: 5-hydroxytryptamine receptor 1A (Rattus norvegicus)
Sequence (P19327 whole entry): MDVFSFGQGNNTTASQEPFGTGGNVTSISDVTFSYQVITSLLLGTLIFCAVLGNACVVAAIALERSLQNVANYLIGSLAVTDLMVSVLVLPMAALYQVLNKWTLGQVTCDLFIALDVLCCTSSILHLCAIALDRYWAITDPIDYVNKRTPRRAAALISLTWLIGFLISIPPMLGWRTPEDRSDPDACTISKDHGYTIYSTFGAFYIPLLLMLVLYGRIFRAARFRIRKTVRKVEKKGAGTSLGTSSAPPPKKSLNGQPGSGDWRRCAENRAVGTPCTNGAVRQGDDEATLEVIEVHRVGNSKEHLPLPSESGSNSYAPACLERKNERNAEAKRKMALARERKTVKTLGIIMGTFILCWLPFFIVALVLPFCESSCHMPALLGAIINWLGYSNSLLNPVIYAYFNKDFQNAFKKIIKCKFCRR
assay.overview: Binding affinity towards 5-hydroxytryptamine 1A receptor in rat hippocampus with [3H]8-OH-DPAT
Assay type: tissue-based
# maps each entry to its pKi
// returns pKi (minus log10 of molar concentration), number only

# query.smiles, pKi
records = [
    ("COc1ccc(NC(=O)c2ccc(-c3ccncc3)cc2)cc1N1CCN(C)CC1", 5.90),
]

Next up:
Consider the molecule COc1ccc(NC(=O)c2ccc(-c3ccc(-c4noc(C)n4)cc3C)cc2)cc1N1CCN(C)CC1 and give its measured pKi.
6.50

----------
# maps each entry to its pKi
experimental.system: 5-hydroxytryptamine receptor 1A (Rattus norvegicus, UniProt P19327)
Sequence (P19327 whole entry): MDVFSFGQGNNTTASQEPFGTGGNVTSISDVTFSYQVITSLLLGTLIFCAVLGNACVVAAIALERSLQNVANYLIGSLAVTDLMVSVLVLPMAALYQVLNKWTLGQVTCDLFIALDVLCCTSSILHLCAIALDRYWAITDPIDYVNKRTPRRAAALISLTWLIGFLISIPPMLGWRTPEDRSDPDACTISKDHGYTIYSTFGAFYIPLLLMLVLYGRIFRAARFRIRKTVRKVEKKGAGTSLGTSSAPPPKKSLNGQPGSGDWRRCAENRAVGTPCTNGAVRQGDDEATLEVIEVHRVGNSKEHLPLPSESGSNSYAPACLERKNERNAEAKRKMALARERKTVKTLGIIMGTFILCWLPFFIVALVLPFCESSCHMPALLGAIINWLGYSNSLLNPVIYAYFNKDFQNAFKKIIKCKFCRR
assay.overview: Binding affinity towards 5-hydroxytryptamine 1A receptor in rat hippocampus using [3H]8-OH-DPAT
Assay type: tissue-based
// returns pKi (minus log10 of molar concentration), number only

# query.smiles, pKi
records = [
    ("COc1ccc(C(=O)Nc2ccc(-c3ccc(-c4noc(C)n4)cc3C)cc2)cc1N1CCN(C)CC1", 5.90),
    ("COc1ccc(NC(=O)c2ccc(-c3ccc(C(=O)N(C)C)cc3C)cc2)cc1N1CCN(C)CC1", 6.60),
    ("COc1ccc(C(=O)Nc2ccc(-c3ccncc3)cc2)cc1CCCN(C)C", 4.70),
]

Next up:
Consider the molecule COc1ccc(C(=O)Nc2ccc(-c3ccc(C=O)cc3C)cc2)cc1CCCN(C)C and give its measured pKi.
5.30
